B1: library; a variant is named by its letters at N, in order (parent)
chain: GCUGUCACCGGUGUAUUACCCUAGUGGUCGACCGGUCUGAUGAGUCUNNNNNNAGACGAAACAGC

Variants of: B1
Test: normalized RNA/DNA level without ligand (relative to sTRSVctl = 100) (log10 (% of sTRSVctl)); ligand: hypoxanthine (xanthine aptamer); higher = less ribozyme self-cleavage, higher mRNA level
Settings: HEK293T, reporter: mCherry (pCS4076), ligand present: no
Recorded Metric: normalized RNA/DNA level without ligand (log10)
Could you respond with only the numeric value?

Please report the recorded normalized RNA/DNA level without ligand (log10) for `UUUAUG` . 1.77

Again, but for `GUCGAC` 1.68

Next entry: `AUGAGC` 1.57
